Listed below: Relative Proliferation Fold Change NKL 1:50 values for each entry.
- Study system: T1, orthogonal hCD122 receptor (hoRb), hCD122 with H133D and Y134F (human, UniProt P14784 27-550); note: reference of the scale not given here
- T1 sequence: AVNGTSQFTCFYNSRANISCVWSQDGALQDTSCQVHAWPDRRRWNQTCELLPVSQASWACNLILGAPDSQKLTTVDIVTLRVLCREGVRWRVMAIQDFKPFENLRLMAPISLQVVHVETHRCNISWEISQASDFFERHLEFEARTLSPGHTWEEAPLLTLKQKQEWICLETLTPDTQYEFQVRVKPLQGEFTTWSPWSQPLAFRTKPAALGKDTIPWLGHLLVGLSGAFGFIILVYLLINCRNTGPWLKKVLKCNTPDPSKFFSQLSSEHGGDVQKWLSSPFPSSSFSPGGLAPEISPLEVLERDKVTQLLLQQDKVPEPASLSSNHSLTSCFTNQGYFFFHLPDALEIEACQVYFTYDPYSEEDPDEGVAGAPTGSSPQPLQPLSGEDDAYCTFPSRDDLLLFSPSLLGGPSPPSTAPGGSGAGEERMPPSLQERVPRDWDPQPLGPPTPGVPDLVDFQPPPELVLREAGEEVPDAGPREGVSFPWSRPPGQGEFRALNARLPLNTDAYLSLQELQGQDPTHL
- Test method notes: cell-based or functional assay
Unit fold implied. Number only.

binder="F42K, SQVLKA (ligand) APTSSSTKKTQLQLSQLLVLLKAILNGINNYKNPKLTRMLTKKFYMPKKATELKHLQCLEEELKPLEEVLNLAQSKNFHLRPRDLISNINVIVLELKGSETTFMCEYADETATIVEFLNRWITFCQSIISTLT" value_reported=0.52

### Prompt Respond only with Relative Proliferation Fold Change NKL 1:50 recorded for L80F, SQVLKA (ligand) APTSSSTKKTQLQLSQLLVLLKAILNGINNYKNPKLTRMLTFKFYMPKKATELKHLQCLEEELKPLEEVLNLAQSKNFHFRPRDLISNINVIVLELKGSETTFMCEYADETATIVEFLNRWITFCQSIISTLT
### Response 2.27

### Prompt // Input: N88E, SQVLKA (ligand) APTSSSTKKTQLQLSQLLVLLKAILNGINNYKNPKLTRMLTFKFYMPKKATELKHLQCLEEELKPLEEVLNLAQSKNFHLRPRDLISEINVIVLELKGSETTFMCEYADETATIVEFLNRWITFCQSIISTLT . Output its Relative Proliferation Fold Change NKL 1:50 only.
### Response 0.51

### Prompt # return recorded Relative Proliferation Fold Change NKL 1:50 for entry K97Q, SQVLKA (ligand) APTSSSTKKTQLQLSQLLVLLKAILNGINNYKNPKLTRMLTFKFYMPKKATELKHLQCLEEELKPLEEVLNLAQSKNFHLRPRDLISNINVIVLELQGSETTFMCEYADETATIVEFLNRWITFCQSIISTLT
### Response 1.9
